Entries and their Dmax
# System: AR in LNCaP cells (Homo sapiens, UniProt P10275, T878A)
# Construct: Assay on Degradation Activity for AR in LNCaP Cells; endogenous in cells; host or cells: LNCaP cells
# Sequence (P10275 1-920 T878A): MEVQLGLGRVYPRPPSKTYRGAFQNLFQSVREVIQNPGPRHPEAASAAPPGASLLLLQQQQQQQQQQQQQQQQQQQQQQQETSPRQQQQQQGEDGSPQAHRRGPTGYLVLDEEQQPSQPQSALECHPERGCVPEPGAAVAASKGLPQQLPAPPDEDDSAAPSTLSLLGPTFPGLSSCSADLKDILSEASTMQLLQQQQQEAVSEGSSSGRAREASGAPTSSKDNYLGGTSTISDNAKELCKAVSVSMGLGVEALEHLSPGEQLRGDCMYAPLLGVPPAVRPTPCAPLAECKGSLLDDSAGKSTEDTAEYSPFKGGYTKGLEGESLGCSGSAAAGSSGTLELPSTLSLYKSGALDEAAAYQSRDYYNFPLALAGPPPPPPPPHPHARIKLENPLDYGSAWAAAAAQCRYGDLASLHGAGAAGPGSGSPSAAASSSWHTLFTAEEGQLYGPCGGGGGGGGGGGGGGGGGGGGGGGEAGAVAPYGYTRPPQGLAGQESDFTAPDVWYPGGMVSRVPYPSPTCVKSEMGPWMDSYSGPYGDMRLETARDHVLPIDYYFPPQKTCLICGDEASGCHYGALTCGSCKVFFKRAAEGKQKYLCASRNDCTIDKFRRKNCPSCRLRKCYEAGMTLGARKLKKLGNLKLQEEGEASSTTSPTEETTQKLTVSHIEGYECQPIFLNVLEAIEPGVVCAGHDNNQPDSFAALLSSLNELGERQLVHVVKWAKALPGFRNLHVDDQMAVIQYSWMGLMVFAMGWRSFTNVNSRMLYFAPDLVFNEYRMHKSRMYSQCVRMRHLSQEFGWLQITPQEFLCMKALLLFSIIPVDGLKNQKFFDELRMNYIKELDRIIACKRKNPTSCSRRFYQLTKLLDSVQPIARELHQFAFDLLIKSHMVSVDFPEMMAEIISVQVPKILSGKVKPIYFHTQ
# Assay Remarks: Assay on degradation activity for AR in LNCaP cells (HTRF human androgen receptor detection kit)
# Assay type: cell-based
# Condition: 24 h incubation, maximum degradation rate

A selection of reference data follows.
CN(c1ccc(C#N)c(Cl)c1)[C@H]1CC[C@H](NC(=O)c2ccc(N3CCC(CN4CCc5c(ccc6c(C7CCC(=O)NC7=O)noc56)C4)CC3)nn2)CC1 (some centres unmarked) [Compound 118] | > 80%
N#Cc1ccc(O[C@H]2CC[C@H](NC(=O)c3ccc(N4CCC(CN5CCc6c(ccc7c(C8CCC(=O)NC8=O)noc67)C5)CC4)nn3)CC2)cc1Cl (some centres unmarked) [Compound 19] | > 80%
N#Cc1ccc(O[C@H]2CC[C@H](NC(=O)c3cnc(N4CCN(C5CN(CC6Cc7ccc8c(C9CCC(=O)NC9=O)coc8c7C6)C5)CC4)nc3)CC2)cc1Cl (some centres unmarked) [Compound 109] | > 80%
N#Cc1ccc(O[C@H]2CC[C@H](NC(=O)c3ccc(N4CCC5(CC4)CC(CN4CCc6ccc7c(C8CCC(=O)NC8=O)noc7c6C4)C5)nn3)CC2)cc1Cl (some centres unmarked) [Compound 35] | > 80%

Could you now consider this next molecule?
Record request: Dmax value, item N#Cc1ccc(O[C@H]2CC[C@H](NC(=O)c3ccc(N4CCC(CN5CC(CN6Cc7cc8onc(C9CCC(=O)NC9=O)c8cc7C6)C5)CC4)nn3)CC2)cc1Cl (some centres unmarked) [Compound 102] > 80%

====

# Assay Remarks: Mouse pharmacokinetics
# Format: in vivo, ICR mice
# Condition: ICR, mouse, plasma, po, 10 mg/kg, Mouse i.g. 10 mpk vs i.v. 1 mpk
We use 40% as the dividing line for bioavailability: on or above the line is criterion met, below is criterion not met.

N#Cc1ccc(O[C@H]2CC[C@H](NC(=O)c3ccc(N4CCN(CC5Cc6ccc7c(C8CCC(=O)NC8=O)noc7c6C5)CC4)nn3)CC2)cc1Cl (some centres unmarked) | criterion not met
N#Cc1ccc(O[C@H]2CC[C@H](NC(=O)c3ccc(N4CCC(CN5Cc6ccc7c(C8CCC(=O)NC8=O)noc7c6C5)CC4)nn3)CC2)cc1Cl (some centres unmarked) | criterion met
N#Cc1ccc(O[C@H]2CC[C@H](NC(=O)c3ccc(N4CCC(CN5CCc6ccc7c(C8CCC(=O)NC8=O)noc7c6C5)CC4)nn3)CC2)cc1Cl (some centres unmarked) | criterion not met

Field: next compound
Please indicate if the recorded bioavailability for N#Cc1ccc(O[C@H]2CC[C@H](NC(=O)c3ccc(N4CCC(CN5CCc6c(ccc7c(C8CCC(=O)NC8=O)noc67)C5)CC4)nn3)CC2)cc1Cl (some centres unmarked) meets or exceeds 40%. criterion met

====

Each item that follows carries a reported Cmax.
# Assay Remarks: Mouse pharmacokinetics
# Assay type: in vivo, ICR mice
# Condition: ICR, mouse, plasma, po, 10 mg/kg, Mouse i.g. 10 mpk; read-out: Cmax
Report the value in ng/mL with no unit label.

Entry N#Cc1ccc(O[C@H]2CC[C@H](NC(=O)c3ccc(N4CCC(CN5CCc6ccc7c(C8CCC(=O)NC8=O)noc7c6C5)CC4)nn3)CC2)cc1Cl (stereo partly drawn) [Compound 18] : reported Cmax = ? 1200

Sample N#Cc1ccc(O[C@H]2CC[C@H](NC(=O)c3cnc(N4CCC(CN5Cc6ccc7c(C8CCC(=O)NC8=O)noc7c6C5)CC4)nc3)CC2)cc1Cl (stereo partly drawn) [Compound 119] — what was its Cmax? 559

Please look up its Cmax: N#Cc1ccc(O[C@H]2CC[C@H](NC(=O)c3ccc(N4CCN(CC5Cc6ccc7c(C8CCC(=O)NC8=O)noc7c6C5)CC4)nn3)CC2)cc1Cl (stereo partly drawn) [Compound 26] 886
